Experimental Target: Human immunodeficiency virus type 1 reverse transcriptase (Human immunodeficiency virus 1, UniProt Q72547, M184I)
Assay Details: Inhibition of HIV reverse transcriptase M184I mutant in cell free assay
pIC50: −log10 of the molar value.
Reported Endpoint: pIC50

> print(dat)
                                   molecule  reported.endpoint  qualifier.operator  value.measured
1  Nc1nc(=O)n([C@H]2C[C@@H](COP(=O)(O)OP(=O)(O)OP(=O)(O)O)C2)cc1F              pIC50                   =            5.21
2  Nc1ccn([C@@H]2CS[C@H](COP(=O)(O)OP(=O)(O)OP(=O)(O)O)O2)c(=O)n1 [LAMIVUDINE TRIPHOSPHATE]              pIC50                   <            5.00
